- TARGET_OR_SYSTEM: T1, Human IL-17A (human, UniProt Q16552 20-155, limits assumed)
- T1 construct: Biotinylated in the ELISAs; purified recombinant protein in SPR; also called hIL17A; hIL-17
- T1 sequence (Q16552 20-155 limits assumed): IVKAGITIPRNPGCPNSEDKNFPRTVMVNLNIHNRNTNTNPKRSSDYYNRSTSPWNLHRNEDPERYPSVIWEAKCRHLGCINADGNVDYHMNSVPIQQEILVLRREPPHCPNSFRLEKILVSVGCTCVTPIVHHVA
- PROCEDURE_SUMMARY: SPR (Biacore T200), antibody captured by anti-human IgG Fc, antigen in solution

BINDER	koff / s⁻¹
IL17-h10F7M-A11 hIgG1/K mut (antibody, V domains shown, Full length human IgG1/kappa, IgG1 mut(234,235); also called h10F7-A11; J439M1S2(H)3 #A11) VH: EVQLVQSGAEVKKPGSSVKVSCKASGYTFTDYEIHWVRQAPGQGLEWIGVNDPESGGTFYNQKFDGRVTLSADESTSTAYMELSSLRSEDTAVYYCTRYDKYWSFEGMDYWGQGTTVTVSS VL: DIQMTQSPSSLSASVGDRVTITCRASSGIISYIDWFQQKPGKAPKRLIYATFDLASGVPSRFSGSGSGTDYTLTISSLQPEDFATYYCRQVGSYPETFGQGTKLEIK	7.68e-06
IL17-h10F7M-B13 hIgG1/K mut (antibody, V domains shown, Full length human IgG1/kappa, IgG1 mut(234,235); also called h10F7-B13; J439M1S2(H)3 #B13) VH: EVQLVQSGAEVKKPGSSVKVSCKASGYTFSDYEIHWVRQAPGQGLEWMGVNDPESGGTFYNQKFDGRVTLTADESTSTAYMELSSLRSEDTAVYYCTRYDKYWSFEGMDYWGQGTTVTVSS VL: DIQMTQSPSSLSASVGDRVTITCRASSGIISYIDWFQQKPGKAPKRLIYATFDLASGVPSRFSGSGSGTDYTLTISSLQPEDFATYYCRQVGSYPETFGQGTKLEIK	6.88e-06
IL17-h10F7M11 hIgG1/K mut (antibody, V domains shown, Full length human IgG1/kappa, IgG1 mut(234,235); also called J439M1S3R5#11; PR-1263009) VH: EVQLVQSGAEVKKPGSSVKVSCKASGYTFTDYEIHWVRQAPGQGLEWMGVNDPESGGTFYNQKFDGRVTLTADESTSTAYMELSSLRSEDTAVYYCTRYSKWDSFDGMDYWGQGTTVTVSS VL: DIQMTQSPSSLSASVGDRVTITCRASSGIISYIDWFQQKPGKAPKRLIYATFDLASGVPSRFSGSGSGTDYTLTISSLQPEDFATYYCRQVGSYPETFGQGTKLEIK	7.24e-06
IL17-h10F7M10 hIgG1/K mut (antibody, V domains shown, Full length human IgG1/kappa, IgG1 mut(234,235) (HC plasmid pHybE-hCg1,z,non-a,mut(234,235); LC pHybE-hCk); also called J439M1S3R5#10; PR-1262986) VH: EVQLVQSGAEVKKPGSSVKVSCKASGYTFDDYEIHWVRQAPGQGLEWIGVNDPESGGTFYNQKFDGRATLTADKSTSTAYMELSSLRSEDTAVYYCTRYDKWDSFYGMDYWGQGTTVTVSS VL: DIQMTQSPSSLSASVGDRVTITCSASSGSISYIDWFQQKPGKAPKRLIYATFELASGVPSRFSGSGSGTDFTLTISSLQPEDFATYYCHQLGSYPDTFGQGTKLEIK	6.8e-06
IL17-h10F7M-B20 hIgG1/K mut (antibody, V domains shown, Full length human IgG1/kappa, IgG1 mut(234,235); also called h10F7-B20; J439M1S2(H)3 #B20) VH: EVQLVQSGAEVKKPGSSVKVSCKASGYTFTDYEIHWVRQAPGQGLEWMGVNDPESGGTFYNQKFDGRVTLTADESTSTAYMELSSLRSEDTAVYYCTRYDKWYSFEGMDIWGQGTTVTVSS VL: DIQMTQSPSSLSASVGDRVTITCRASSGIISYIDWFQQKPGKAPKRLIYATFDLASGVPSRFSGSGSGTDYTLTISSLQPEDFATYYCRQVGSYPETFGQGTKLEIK	6.27e-06
IL17-h10F7M-A6 hIgG1/K mut (antibody, V domains shown, Full length human IgG1/kappa, IgG1 mut(234,235); also called h10F7-A6; J439M1S2(H)3 #A6) VH: EVQLVQSGAEVKKPGSSVKVSCKASGYTFTDYEIHWVRQAPGQGLEWIGVNDPDSGGTLYNQKFDGRVTLTADESTSTAYMELSSLRSEDTAVYYCTRYDKWYSFEGMDIWGQGTTVTVSS VL: DIQMTQSPSSLSASVGDRVTITCSASQGIRSYIDWFQQKPGKSPKRLIYATFDLASGVPSRFSGSGSGTDYTLTISSLQPEDFATYYCRQVGNYPGTFGQGTKLEIK	4.48e-06
IL17-h10F7M-A16 hIgG1/K mut (antibody, V domains shown, Full length human IgG1/kappa, IgG1 mut(234,235); also called h10F7-A16; J439M1S2(H)3 #A16) VH: EVQLVQSGAEVKKPGSSVKVSCKASGYTFSDYEIHWVRQAPGQGLEWMGVNDPESGGTFYNQKFDGRVTLTADESTSTAYMELSSLRSEDTAVYYCTRYDKWYSFEGMDIWGQGTTVTVSS VL: DIQMTQSPSSLSASVGDRVTITCSASQGIRSYIDWFQQKPGKSPKRLIYATFDLASGVPSRFSGSGSGTDYTLTISSLQPEDFATYYCRQVGNYPGTFGQGTKLEIK	4.52e-06

The measured values listed here are drawn from patent US20140161804A1.
